Each recorded value in this set is attributed to the supplement of paper PMC8728848.

Provide the recorded glycan array binding signal (z-score) for the entries that follow.
target: Neu5Ac(a2-3)Gal(b1-3)[GlcNAc(b1-6)]GalNAc; assay: glycan array binding signal (z-score within array); higher = stronger binding; conditions: glycan notation: IUPAC condensed, linker removed
Only a selection was taken, and the strongest signals are over-represented in it overall.
API note: the answer field is a bare number with no unit suffix.

## Input For EUL D1A second (Oryza sativa) (protein) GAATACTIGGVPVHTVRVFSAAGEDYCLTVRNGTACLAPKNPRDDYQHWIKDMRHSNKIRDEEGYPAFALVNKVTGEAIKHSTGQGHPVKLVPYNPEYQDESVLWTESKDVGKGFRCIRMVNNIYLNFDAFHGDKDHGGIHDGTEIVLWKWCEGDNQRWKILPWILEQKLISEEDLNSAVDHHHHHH , what is its reported glycan array binding signal (z-score)?
## Output 0.412

## Input Given LecRKVI.2 (protein) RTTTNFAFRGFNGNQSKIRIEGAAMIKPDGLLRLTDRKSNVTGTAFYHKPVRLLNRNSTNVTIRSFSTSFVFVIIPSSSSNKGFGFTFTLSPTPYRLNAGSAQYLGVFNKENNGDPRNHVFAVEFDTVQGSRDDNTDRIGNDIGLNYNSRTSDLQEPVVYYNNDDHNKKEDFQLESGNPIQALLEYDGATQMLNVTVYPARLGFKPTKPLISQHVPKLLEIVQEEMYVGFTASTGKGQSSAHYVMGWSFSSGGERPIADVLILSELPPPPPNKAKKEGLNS , state its recorded glycan array binding signal (z-score).
## Output -0.402

## Input For the binder EUL D1A first (Oryza sativa) (protein) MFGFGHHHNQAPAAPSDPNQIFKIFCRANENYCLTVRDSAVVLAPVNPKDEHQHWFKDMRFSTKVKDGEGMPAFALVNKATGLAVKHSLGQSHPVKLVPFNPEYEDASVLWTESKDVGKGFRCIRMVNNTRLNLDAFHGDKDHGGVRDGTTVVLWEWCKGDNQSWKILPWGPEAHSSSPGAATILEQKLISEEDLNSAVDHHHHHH , what glycan array binding signal (z-score) is on record?
## Output 0.405
